Target: Metabotropic glutamate receptor 5 (Rattus norvegicus, UniProt P31424)
Sequence (P31424 whole entry): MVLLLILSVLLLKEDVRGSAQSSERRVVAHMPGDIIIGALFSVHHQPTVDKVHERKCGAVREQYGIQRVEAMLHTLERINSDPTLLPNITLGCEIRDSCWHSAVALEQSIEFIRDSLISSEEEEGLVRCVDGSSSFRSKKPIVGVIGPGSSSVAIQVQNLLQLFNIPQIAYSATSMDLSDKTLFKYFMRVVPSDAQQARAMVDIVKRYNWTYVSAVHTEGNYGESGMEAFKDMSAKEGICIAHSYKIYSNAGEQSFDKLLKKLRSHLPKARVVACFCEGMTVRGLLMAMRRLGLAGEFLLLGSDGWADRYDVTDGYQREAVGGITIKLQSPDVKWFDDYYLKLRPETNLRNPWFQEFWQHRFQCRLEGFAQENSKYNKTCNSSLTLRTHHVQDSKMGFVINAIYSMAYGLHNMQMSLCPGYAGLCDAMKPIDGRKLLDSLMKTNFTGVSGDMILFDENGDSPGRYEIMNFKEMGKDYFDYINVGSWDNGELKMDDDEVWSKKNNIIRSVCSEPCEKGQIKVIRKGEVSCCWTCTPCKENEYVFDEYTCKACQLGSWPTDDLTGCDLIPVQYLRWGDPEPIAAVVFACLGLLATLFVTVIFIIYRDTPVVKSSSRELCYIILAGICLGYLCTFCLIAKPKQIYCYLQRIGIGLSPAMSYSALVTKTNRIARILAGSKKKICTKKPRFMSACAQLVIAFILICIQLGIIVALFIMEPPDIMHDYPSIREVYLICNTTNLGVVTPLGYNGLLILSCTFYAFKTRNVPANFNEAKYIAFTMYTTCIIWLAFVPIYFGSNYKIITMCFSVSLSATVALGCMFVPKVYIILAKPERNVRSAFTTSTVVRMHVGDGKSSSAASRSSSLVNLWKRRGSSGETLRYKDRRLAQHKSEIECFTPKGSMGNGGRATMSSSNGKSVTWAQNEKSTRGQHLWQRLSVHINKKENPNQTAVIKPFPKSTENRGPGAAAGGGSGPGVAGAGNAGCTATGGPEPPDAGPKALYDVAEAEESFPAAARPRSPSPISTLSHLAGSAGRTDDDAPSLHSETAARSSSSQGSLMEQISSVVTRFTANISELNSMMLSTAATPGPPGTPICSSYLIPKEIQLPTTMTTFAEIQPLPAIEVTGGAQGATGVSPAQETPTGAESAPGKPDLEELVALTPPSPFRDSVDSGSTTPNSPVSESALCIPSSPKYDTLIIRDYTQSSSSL
Binary label based on Ki with cut-off 100 nM: below gives fulfilled, not below gives not fulfilled.

INSERT INTO results (compound, measured_on, assigned_category) VALUES
  ('O=C(C1CCCC1)N1CCCCC1c1nnn(-c2cccc(Cl)c2)n1 (racemic)', 'Metabotropic glutamate receptor 5 (Rattus norvegicus, UniProt P31424)', 'fulfilled'),
  ('O=C(c1ccc(Br)o1)N1CCCCC1c1nnn(-c2cccc(F)c2)n1 (racemic)', 'Metabotropic glutamate receptor 5 (Rattus norvegicus, UniProt P31424)', 'not fulfilled'),
  ('O=C(c1ccco1)N1CCCCC1c1nnn(-c2cccc(Cl)c2)n1 (racemic)', 'Metabotropic glutamate receptor 5 (Rattus norvegicus, UniProt P31424)', 'not fulfilled'),
  ('Cc1cccc(-c2noc(C3CCCN3C(=O)c3ccc(C)s3)n2)c1 (racemic)', 'Metabotropic glutamate receptor 5 (Rattus norvegicus, UniProt P31424)', 'not fulfilled');

----------
Target or system UniProt P31424: recorded log10 Ki listed per item.
Measured Metric: log10 Ki (log10 of the value in nM)

INSERT INTO measurements (compound, value_observed) VALUES
  ('Cc1ccc(C(=O)N2CSCC2c2nc(-c3cccc(Cl)c3)no2)s1 (racemic)', 1.92),
  ('Cc1ccc(C(=O)N2CCCC2c2nc(-c3cccc(Cl)c3)no2)s1 (racemic)', 2.09),
  ('Cc1cccc(-n2nnc(C3CCCCN3C(=O)C3CCC3)n2)c1 (racemic)', 1.86),
  ('O=C(C1CCC1)N1CCCCC1c1nnn(-c2cccc(Cl)c2)n1 (racemic)', 1.89),
  ('O=C(c1cccs1)N1CCCC(c2nnn(-c3cccc(Cl)c3)n2)C1 (racemic)', 2.50),
  ('N#Cc1cccc(-c2noc(C3CCCCN3C(=O)c3cccs3)n2)c1 (racemic)', 2.30),
  ('O=C(C1CCC1)N1CCCC[C@H]1c1nnn(-c2cccc(Cl)c2)n1', 2.87);

----------
Molecular target: Metabotropic glutamate receptor 5 (Rattus norvegicus)
Assay: Allosteric modulation of mGluR5 in E17 rat neuronal cultures assessed as inhibition of (S)-3,5-dihydroxyphenylglycine-induced calcium level
Documented IC50 across a set of molecules
Measured Metric: IC50

INSERT INTO measurements (molecule, measured_on, measured_metric, value_observed) VALUES
  ('Cc1ccc(C(=O)N2CCCC2c2nnn(-c3cccc(Cl)c3)n2)s1 (racemic)', 'Metabotropic glutamate receptor 5 (Rattus norvegicus)', 'IC50', '251 nM'),
  ('O=C(c1ccco1)N1CSCC1c1nc(-c2cccc(Cl)c2)no1 (racemic)', 'Metabotropic glutamate receptor 5 (Rattus norvegicus)', 'IC50', '1050 nM'),
  ('Cc1cccc(-c2noc(C3CCCCN3C(=O)C3CCC3)n2)c1 (racemic)', 'Metabotropic glutamate receptor 5 (Rattus norvegicus)', 'IC50', '490 nM'),
  ('Cc1ccc(C(=O)N2CSCC2c2nc(-c3cccc(Cl)c3)no2)s1 (racemic)', 'Metabotropic glutamate receptor 5 (Rattus norvegicus)', 'IC50', '759 nM'),
  ('COCC(=O)N1CCCC1c1nc(-c2cccc(C)c2)no1 (racemic)', 'Metabotropic glutamate receptor 5 (Rattus norvegicus)', 'IC50', '30200 nM'),
  ('O=C(c1cccs1)N1CCCC1c1nc(-c2cccc(Cl)c2)no1 (racemic)', 'Metabotropic glutamate receptor 5 (Rattus norvegicus)', 'IC50', '30200 nM'),
  ('O=C(C1CCCC1)N1CCCCC1c1nnn(-c2cccc(Cl)c2)n1 (racemic)', 'Metabotropic glutamate receptor 5 (Rattus norvegicus)', 'IC50', '295 nM'),
  ('O=C(C1CCC1)N1CCCCC1c1nnn(-c2cccc(Cl)c2)n1 (racemic)', 'Metabotropic glutamate receptor 5 (Rattus norvegicus)', 'IC50', '339 nM');

Provenance of the data: ChEMBL document CHEMBL1158608
